Biological target: T1, sIL-6R (soluble IL-6 receptor; SBH Sciences) (human, UniProt P08887 20-365)
T1 construct: also called human IL-6R
T1 sequence: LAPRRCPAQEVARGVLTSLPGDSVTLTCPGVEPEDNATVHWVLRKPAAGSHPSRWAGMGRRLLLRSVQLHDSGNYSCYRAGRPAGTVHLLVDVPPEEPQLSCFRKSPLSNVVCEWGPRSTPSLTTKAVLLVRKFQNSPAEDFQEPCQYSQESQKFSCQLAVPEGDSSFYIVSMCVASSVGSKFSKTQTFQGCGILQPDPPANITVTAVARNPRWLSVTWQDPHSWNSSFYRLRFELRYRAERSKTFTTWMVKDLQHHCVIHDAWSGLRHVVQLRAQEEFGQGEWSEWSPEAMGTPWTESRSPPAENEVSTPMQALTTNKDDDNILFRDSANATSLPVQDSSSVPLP
Experiment: SPR (BIAcore 3000), antibody on chip, sIL-6R analyte, 25 C
Catalogue of koff readings, one per entry.

binder	koff [s⁻¹]
251# (antibody, human IgG1, kappa, V domains shown, also called Sample # 251) VH: QVQLQESGPGLVRPSQTLSLTCTVSGYSITSDHAWSWVRQPPGRGLEWIGYISYSGMITYNPSLKSRVTMLRDTSKNQFSLRLSSVTAADTAVYYCARSLARITAMDYWGQGSLVTVSS VL: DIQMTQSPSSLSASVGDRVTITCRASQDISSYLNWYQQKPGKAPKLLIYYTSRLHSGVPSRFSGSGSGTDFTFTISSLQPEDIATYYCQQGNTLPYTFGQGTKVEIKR	0.00014
206# (antibody, human IgG1, kappa, V domains shown, also called Sample # 206) VH: QVQLQESGPGLVRPSQTLSLTCTVSGYSITSDHAWSWVRQPPGRGLEWIGFISYSGMTTYNPSLKSRVTMLRDTSKNQFSLRLSSVTAADTAVYYCARSLARITAMDYWGQGSLVTVSS VL: DIQMTQSPSSLSASVGDRVTITCRASQDISSYLNWYQQKPGKAPKLLIYYTSRLHSGVPSRFSGSGSGTDFTFTISSLQPEDIATYYCGQGNRLPYTFGQGTKVEIKR	1.35e-07
248# (antibody, human IgG1, kappa, V domains shown, also called Sample # 248) VH: QVQLQESGPGLVRPSQTLSLTCTVSGYSITSDHAWSWVRQPPGRGLEWIGYISYSGMITYNPSLKSRVTMLRDTSKNQFSLRLSSVTAADTAVYYCARTLARMTAIDFWGQGSLVTVSS VL: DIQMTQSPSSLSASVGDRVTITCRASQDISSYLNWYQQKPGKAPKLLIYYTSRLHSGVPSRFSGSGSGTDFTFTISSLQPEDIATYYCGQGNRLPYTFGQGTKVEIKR	1.73e-05
